Test system: Caco-2
measurement.description: MTT anticancer activity, Caco-2
Assay type: cell-based, human
condition.description: ratio IC50 on normal cells (Wi-38) / IC50 on Caco-2
measured.attribute: SI
Output spec: single numeric token, no unit.

Please report the measured SI for Cc1cc(=O)[nH]c(NN=C[C@H](O)[C@@H](O)[C@H](O)CO)n1 [Compound 2] 0.73

Please report the measured SI for Cc1cc(=O)[nH]c(NN=C[C@@H](O)[C@@H](O)[C@H](O)[C@H](O)CO)n1 [Compound 4] 1.19

Please report the measured SI for Cc1cc(=O)[nH]c(NN=C[C@H](O)[C@@H](O)[C@H](O)[C@H](O)CO)n1 [Compound 3] 1.83

Please report the measured SI for Cc1cc(=O)[nH]c(NN=C[C@H](O)[C@@H](O)[C@@H](O)[C@H](O)CO)n1 [Compound 5] 0.92

Please report the measured SI for CC(=O)OCC(OC(C)=O)C(OC(C)=O)C(OC(C)=O)C1N(C(C)=O)N(C(C)=O)c2nc(C)cc(=O)n21 (stereo not drawn) [Compound 6] 10.86

Please report the measured SI for CC(=O)OCC(OC(C)=O)C(OC(C)=O)C(OC(C)=O)C(OC(C)=O)C1N(C(C)=O)N(C(C)=O)c2nc(C)cc(=O)n21 (stereo not drawn) [Compound 7] 18.39
